- ASSAY SYSTEM: DmmA (Lyngbya majuscula, UniProt Q6DND9)
- Construct: His-tagged, expressed in E. coli BL21(DE3), Ni-NTA purified; PDB 3U1T for the docking model of the same protein
- PROTOCOL NOTES: global fit of stopped-flow fluorescence/absorbance and ITC
- RUN CONDITIONS: 100 mM glycine pH 8.6, 37 °C; enzyme-product complex after isomerization (EP2); read-out: K5
PROPERTY MEASURED: pKd
Answers are plain numbers, as −log10 of the molar value.

The reported pKd of the molecule C[N+](C)(C)Cc1ccc(/N=N/c2cccc(CO)c2)cc1 [3c, E-3c-OH] was 5.45

* * *

- ASSAY SYSTEM: DmmA (Lyngbya majuscula)
- Sequence (Q6DND9 25-341): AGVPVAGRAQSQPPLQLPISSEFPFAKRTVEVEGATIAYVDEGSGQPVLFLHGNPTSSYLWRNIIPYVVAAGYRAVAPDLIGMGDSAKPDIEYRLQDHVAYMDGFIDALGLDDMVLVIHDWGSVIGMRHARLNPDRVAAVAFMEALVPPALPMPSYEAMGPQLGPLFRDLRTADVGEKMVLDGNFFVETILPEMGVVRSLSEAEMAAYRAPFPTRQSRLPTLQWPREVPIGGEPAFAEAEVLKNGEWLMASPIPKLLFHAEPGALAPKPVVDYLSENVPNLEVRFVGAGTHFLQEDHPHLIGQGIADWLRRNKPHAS
PROPERTY MEASURED: Ki (nM)
One number for each entry, in nM.

The reported Ki of the compound COCCOCCOc1ccc(/N=N\c2cccc(CCl)c2)cc1 was 35

* * *

- ASSAY SYSTEM: LinB (Sphingobium indicum, UniProt D4Z2G1)
- Construct: His-tagged, expressed in E. coli BL21(DE3), Ni-NTA purified; PDB 1MJ5 given for the docking model of the same protein
- Sequence (D4Z2G1 2-296): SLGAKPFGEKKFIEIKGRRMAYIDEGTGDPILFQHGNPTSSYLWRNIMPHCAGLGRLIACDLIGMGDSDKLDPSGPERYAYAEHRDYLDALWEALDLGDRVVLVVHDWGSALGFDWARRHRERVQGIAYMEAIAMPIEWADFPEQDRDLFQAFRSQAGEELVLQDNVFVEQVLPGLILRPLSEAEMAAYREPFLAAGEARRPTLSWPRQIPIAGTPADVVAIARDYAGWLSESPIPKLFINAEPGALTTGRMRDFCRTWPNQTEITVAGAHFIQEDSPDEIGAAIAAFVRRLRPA
- PROTOCOL NOTES: global fit of stopped-flow fluorescence/absorbance and ITC
- Format: biochemical
- RUN CONDITIONS: 100 mM glycine pH 8.6, 37 °C; enzyme-product complex (EP); read-out: K4
PROPERTY MEASURED: pKd
Answers are plain numbers, as −log10 of the molar value.

The reported pKd of the molecule C[N+](C)(C)Cc1ccc(/N=N/c2cccc(CO)c2)cc1 was 4.94

* * *

- ASSAY SYSTEM: LinB (Sphingobium indicum, UniProt D4Z2G1)
- Construct: His-tagged, expressed in E. coli BL21(DE3), Ni-NTA purified; PDB 1MJ5 given for the docking model of the same protein
- PROTOCOL NOTES: global fit of stopped-flow fluorescence/absorbance and ITC
- Assay type: biochemical
- RUN CONDITIONS: 100 mM glycine pH 8.6, 37 °C; equilibrium dissociation constant of enzyme-substrate complex; read-out: K1
PROPERTY MEASURED: pKd
Answers are plain numbers, as −log10 of the molar value.

The reported pKd of the molecule C[N+](C)(C)Cc1ccc(/N=N/c2cccc(CCl)c2)cc1 was 5.13
